Source of measurements: patent US20200165344A1

# TARGET DESC: T1, recombinant mouse NKG2D-Fc (mouse; human, UniProt O54709 90-232)
# T1 construct: extracellular domain; also called mouse NKG2D-Fc fusion protein; Mouse NKG2D-Fc-biotin; not shown: human IgG1 Fc domain
# T1 sequence (looked up): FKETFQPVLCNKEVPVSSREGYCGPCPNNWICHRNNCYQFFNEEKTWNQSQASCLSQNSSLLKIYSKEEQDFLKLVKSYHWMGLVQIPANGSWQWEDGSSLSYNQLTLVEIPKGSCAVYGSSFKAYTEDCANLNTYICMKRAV
# ASSAY REMARKS: ELISA, NKG2D-Fc coated
REPORTED METRIC: binding result

Answered examples (5):
Q) What value of binding result has been reported for the following binder? ADI-29407 (antibody, V domains shown) VH: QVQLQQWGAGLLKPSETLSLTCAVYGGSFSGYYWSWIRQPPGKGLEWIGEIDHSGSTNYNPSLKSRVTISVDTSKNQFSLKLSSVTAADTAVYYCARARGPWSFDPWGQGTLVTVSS VL: DIQMTQSPSTLSASVGDRVTITCRASQSISSWLAWYQQKPGKAPKLLIYKASSLESGVPSRFSGSGSGTEFTLTISSLQPDDFATYYCQQYQSFPTFGGGTKVEIK
A) binds

Q) What value of binding result has been reported for the following binder? ADI-29378 (antibody, V domains shown, also called E78) VH: QVQLVQSGAEVKKPGASVKVSCKASGYTFTSYYMHWVRQAPGQGLEWMGIINPSGGSTSYAQKFQGRVTMTRDTSTSTVYMELSSLRSEDTAVYYCAREGAGFAYGMDYYYMDVWGKGTTVTVSS VL: EIVLTQSPATLSLSPGERATLSCRASQSVSSYLAWYQQKPGQAPRLLIYDASNRATGIPARFSGSGSGTDFTLTISSLEPEDFAVYYCQQSDNWPFTFGGGTKVEIK
A) binds

Q) What value of binding result has been reported for the following binder? ADI-28226 (antibody, V domains shown, also called C26) VH: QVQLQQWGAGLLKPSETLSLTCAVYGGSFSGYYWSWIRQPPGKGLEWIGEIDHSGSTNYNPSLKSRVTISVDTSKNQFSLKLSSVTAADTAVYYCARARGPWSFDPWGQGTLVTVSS VL: DIQMTQSPSTLSASVGDRVTITCRASQSISSWLAWYQQKPGKAPKLLIYKASSLESGVPSRFSGSGSGTEFTLTISSLQPDDFATYYCQQYGSFPITFGGGTKVEIK
A) binds

Q) What value of binding result has been reported for the following binder? ADI-29424 (antibody, V domains shown) VH: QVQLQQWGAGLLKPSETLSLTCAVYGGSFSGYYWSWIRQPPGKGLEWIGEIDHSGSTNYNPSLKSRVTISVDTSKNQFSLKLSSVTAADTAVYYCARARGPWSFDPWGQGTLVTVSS VL: DIQMTQSPSTLSASVGDRVTITCRASQSISSWLAWYQQKPGKAPKLLIYKASSLESGVPSRFSGSGSGTEFTLTISSLQPDDFATYYCQQYDSFITFGGGTKVEIK
A) binds

Q) What value of binding result has been reported for the following binder? ADI-29405 (antibody, V domains shown) VH: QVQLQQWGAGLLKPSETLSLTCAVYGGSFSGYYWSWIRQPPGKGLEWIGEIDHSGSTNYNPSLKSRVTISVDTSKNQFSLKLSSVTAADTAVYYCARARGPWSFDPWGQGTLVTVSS VL: DIQMTQSPSTLSASVGDRVTITCRASQSISSWLAWYQQKPGKAPKLLIYKASSLESGVPSRFSGSGSGTEFTLTISSLQPDDFATYYCQQYGSFPTFGGGTKVEIK
A) binds

Now examine the next entry.
Q) What value of binding result has been reported for the following binder? ADI-29404 (antibody, V domains shown, also called F04) VH: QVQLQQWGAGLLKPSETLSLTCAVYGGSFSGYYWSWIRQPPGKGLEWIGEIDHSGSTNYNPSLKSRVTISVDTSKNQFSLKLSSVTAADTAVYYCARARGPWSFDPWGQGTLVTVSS VL: DIQMTQSPSTLSASVGDRVTITCRASQSISSWLAWYQQKPGKAPKLLIYKASSLESGVPSRFSGSGSGTEFTLTISSLQPDDFATYYCEQYDSYPTFGGGTKVEIK
A) binds
